assayed target: UniProt P50336
Sequence (P50336 whole entry): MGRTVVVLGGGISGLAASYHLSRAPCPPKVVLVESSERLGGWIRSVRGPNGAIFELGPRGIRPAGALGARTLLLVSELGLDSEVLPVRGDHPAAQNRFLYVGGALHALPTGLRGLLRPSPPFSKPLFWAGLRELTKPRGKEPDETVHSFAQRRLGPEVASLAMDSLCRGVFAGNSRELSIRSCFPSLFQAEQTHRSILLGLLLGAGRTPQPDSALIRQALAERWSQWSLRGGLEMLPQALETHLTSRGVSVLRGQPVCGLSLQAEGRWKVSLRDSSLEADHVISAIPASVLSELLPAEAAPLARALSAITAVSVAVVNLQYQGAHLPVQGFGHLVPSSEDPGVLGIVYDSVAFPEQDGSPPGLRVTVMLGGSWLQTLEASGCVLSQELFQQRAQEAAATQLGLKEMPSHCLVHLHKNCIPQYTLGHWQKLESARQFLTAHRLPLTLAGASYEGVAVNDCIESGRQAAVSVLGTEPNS
protocol summary: Inhibition of Homo sapiens (human) recombinant protoporphyrinogen oxidase by fluorescence detection
// classify: if (Ki < 1 µM) True else False

1) CC(C)(C)OC(=O)CSc1nc2cc(N3C(=O)C4=C(CCCC4)C3=O)c(F)cc2s1 | True
2) CCOC(=O)C(C)(C)Sc1nc2cc(N3C(=O)C4=C(CCCC4)C3=O)c(Cl)cc2s1 | False
3) COC(=O)CSc1nc2cc(N3C(=O)C4=C(CCCC4)C3=O)c(F)cc2s1 | False
4) CC(C)OC(=O)CSc1nc2cc(N3C(=O)c4ccccc4C3=O)c(F)cc2s1 | False
5) CCCOC(=O)CSc1nc2cc(N3C(=O)c4ccccc4C3=O)c(F)cc2s1 | False

====

Entries and their inhibition of growth at 150 g/ha values follow.
System: Setaria faberi
protocol summary: Herbicidal activity against Setaria faberi (Giant Foxtail) assessed as growth inhibition at 150 g/ha postemergence treatment measured after 15 days by Greenhouse test
Type: functional
test conditions: post-emergence, 360 h, read-out: GI
reported property: inhibition of growth at 150 g/ha

1. CCOC(=O)Sc1nc2cc(N3C(=O)c4ccccc4C3=O)c(F)cc2s1 | < 50%
2. CCOC(=O)CCCSc1nc2cc(N3C(=O)C4=C(CCCC4)C3=O)c(Cl)cc2s1 | < 50%
3. CCOC(=O)C(C)Sc1nc2cc(N3C(=O)C4=C(CCCC4)C3=O)c(Cl)cc2s1 (stereo not given) | < 50%
4. CCOC(=O)CSc1nc2cc(N3C(=O)C4=C(CCCC4)C3=O)c(F)cc2s1 | 60%
5. Cc1nn(-c2cc(NS(C)(=O)=O)c(Cl)cc2Cl)c(=O)n1C(F)F [SULFENTRAZONE] | < 50%
6. CC(C)(C)OC(=O)CSc1nc2cc(N3C(=O)C4=C(CCCC4)C3=O)c(F)cc2s1 | < 50%
7. COC(=O)CSc1nc2cc(N3C(=O)C4=C(CCCC4)C3=O)c(F)cc2s1 | 60%
8. COC(=O)Sc1nc2cc(N3C(=O)C4=C(CCCC4)C3=O)c(F)cc2s1 | < 50%
9. CCOC(=O)CCSc1nc2cc(N3C(=O)C4=C(CCCC4)C3=O)c(Cl)cc2s1 | < 50%
10. CCOC(=O)CSc1nc2cc(N3C(=O)C4=C(CCCC4)C3=O)c(Cl)cc2s1 | < 50%
